# System name: Carbonic anhydrase 1 (Homo sapiens, UniProt P00915)
# Sequence (P00915 whole entry): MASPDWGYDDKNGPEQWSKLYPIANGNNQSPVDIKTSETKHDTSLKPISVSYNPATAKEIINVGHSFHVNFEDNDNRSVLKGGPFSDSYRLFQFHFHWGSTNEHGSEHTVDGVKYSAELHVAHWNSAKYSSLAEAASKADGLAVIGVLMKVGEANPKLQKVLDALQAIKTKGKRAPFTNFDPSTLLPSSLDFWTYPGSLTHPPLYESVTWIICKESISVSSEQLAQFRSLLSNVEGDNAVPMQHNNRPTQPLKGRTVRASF
Reported endpoint: pKi
Answers are plain numbers, as −log10 of the molar value.

stdin: Look at this molecule and give its reported pKi. CC(C)C[C@H](NC(=O)[C@H](Cc1ccccc1)NC(=O)c1cnccn1)B(O)O
stdout: 5.89

###

# System name: Carbonic anhydrase 2 (Homo sapiens)
Reported endpoint: Ki (nM)
Give bare numbers, in nM.

stdin: Recorded Ki of CC(C)C[C@H](NC(=O)[C@H](Cc1ccccc1)NC(=O)c1cnccn1)B(O)O [BORTEZOMIB] , please.
stdout: 1160

###

# Measurement description: Inhibition of Candida albicans beta-carbonic anhydrase preincubated for 15 mins by stopped-flow CO2 hydration assay
Reported endpoint: Ki (µM)
One number for each entry, in µM.

stdin: Return reported Ki; argument: CC(C)C[C@H](NC(=O)[C@H](Cc1ccccc1)NC(=O)c1cnccn1)B(O)O
stdout: 1.12

###

For each entry below, report its pKi value.
# Measurement description: Inhibition of Candida glabrata beta-carbonic anhydrase preincubated for 15 mins by stopped-flow CO2 hydration assay
# Set-up: species or system Nakaseomyces glabratus
Answers are plain numbers, as −log10 of the molar value.

Previously resolved entries follow.
* CC(C)C[C@H](NC(=O)[C@H](Cc1ccccc1)NC(=O)c1cnccn1)B(O)O [BORTEZOMIB] | 5.24
* OB(O)c1ccccc1 [PHENYLBORONIC ACID] | 4.00

Next, consider the following compound.
stdin: Query (compound): CC(=O)Nc1nnc(S(N)(=O)=O)s1 [ACETAZOLAMIDE] ; field requested: pKi
stdout: 7.96

###

Field: pKi. Provide a value for each of the compounds that follow.
# Measurement description: Inhibition of Malassezia globosa beta-carbonic anhydrase preincubated for 15 mins by stopped-flow CO2 hydration assay
Give bare numbers, as −log10 of the molar value.

Past entries and their recorded results:
• CC(=O)Nc1nnc(S(N)(=O)=O)s1 [ACETAZOLAMIDE] = 4.13
• OB(O)c1ccccc1 = 4.05

Let us examine a further case.
stdin: # query: pKi of entry CC(C)C[C@H](NC(=O)[C@H](Cc1ccccc1)NC(=O)c1cnccn1)B(O)O
stdout: 5.49
